B1: tRNA (parent)
chain: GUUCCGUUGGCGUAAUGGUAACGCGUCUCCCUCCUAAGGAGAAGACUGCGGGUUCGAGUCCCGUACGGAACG

# Variants of: B1
# METHOD NOTES: yeast fitness relative to wild type (ratio to wild type); higher = fitter; tRNA-Arg(CCU), competitive growth, 37 C, YPD
Variants at the floor of the assay were thinned out.
ATTRIBUTE MEASURED: yeast fitness
The answer should be written as a number, with no unit following it.

Measured yeast fitness of C4U A21G A70U : 0.78

Measured yeast fitness of U8G G18C A37G A40G : 0.546

Measured yeast fitness of C4A C22U C24A C29A A36C : 0.518

Measured yeast fitness of C5G U8A : 0.641

Measured yeast fitness of C4U A42G G58A : 0.717

Measured yeast fitness of C4A A43C G51A G56C : 0.516

Measured yeast fitness of C34G A40G G48C G63A C66U : 0.605

Measured yeast fitness of G6A U59C G68A : 0.567

Measured yeast fitness of U2A C22U G56A : 0.551

Measured yeast fitness of C22G G68A : 0.813

Measured yeast fitness of U3C A40U : 0.976

Measured yeast fitness of C29G G63A : 0.646

Measured yeast fitness of A42C C61G A65U : 0.539

Measured yeast fitness of U32C U35C A37U G52A C66A : 0.719
